system: P. falciparum stage V gametocytes; set-up: BacTiter-Glo ATP luminescence viability of purified stage V gametocytes in 384-well plates, per cent inhibition versus DMSO; settings: 48 h, 5 µM; inhibitor
In all, about 13,000 compounds went through this assay and about 3,200 (25%) showed an effect of 50% or more. The list shows a part of the results.
As shown below, each of these compounds has a reported % Inhibition value.
assay_metric: % Inhibition (%)

smi	assay_metric	readout_unit	data_value
Cc1cccc(C(=O)Nc2ccnc(N3CCC(N(C)Cc4ccccc4)CC3)c2)c1	% Inhibition	%	-20.99
CCN(CCNC(=O)C1CCN(c2cc(-c3cccc(C)c3)ncn2)CC1)Cc1ccccc1	% Inhibition	%	86.1
CS(=O)(=O)c1ccc(CCNCc2ccc(-c3ccc(CN(C(=O)c4cccc(C#N)c4)C4CCN(Cc5ccccc5)CC4)cc3)nc2)cc1	% Inhibition	%	63.72
O=[N+]([O-])c1cccc(CNCC2CCN(CC3CCCCC3)CC2)c1	% Inhibition	%	9.865

====

As shown below, each of these compounds has a reported % Inhibition value.
test system: P. falciparum stage V gametocytes; set-up: BacTiter-Glo ATP luminescence viability of purified stage V gametocytes in 384-well plates, per cent inhibition versus DMSO; settings: 48 h, 5 µM; inhibitor
The campaign covered roughly 13,000 compounds. About 3,200 (25%) showed an effect of 50% or more. The list shows a part of the results.

compound	% Inhibition, %
CCCc1cc(O)c2c3c(c(=O)oc2c1)CN(C)CC3	-5.24
COc1cc2c(cc1OC)CN(CCCCc1ccc(NC(=O)c3cc(Cl)cc(Cl)c3)cc1)CC2	-15.17
Brc1ccsc1-c1nc(NCCC(c2ccccc2)c2ccccc2)no1	1.138
COc1ccc(CNCC2CCC(CNCCc3ccccc3)CC2)cc1Cl (centres unmarked)	-22.08
Cc1cccc(C)c1OC(=O)C(C)C(O)C1(Sc2ccccc2)CCN(C)CC1 (centres unmarked)	17.64
O=C(NCCNc1ccnc(Nc2ccc(F)cc2)n1)c1cc2ccccc2s1	-20.49
CN1CC[C@@H](Oc2cc(Nc3nc(-c4ccc(C#N)cc4)cs3)ccc2Cl)C1	12.39
COc1ccc(C2C(C(=O)Nc3ccccc3)=C(C)Nc3c(C(=O)Nc4ccccc4)cnn32)cc1 (centres unmarked)	-13.81
CC(C)c1sc(N2CCN(C)CC2)nc1C(=O)Nc1ccc(F)cc1C(F)(F)F	32.87
CC1=C(C(=O)Nc2ccccc2)C(c2ccc([N+](=O)[O-])cc2)n2ncc(C(=O)Nc3ccccc3)c2N1 (centres unmarked)	50.23
Cc1nc2nc(N)nc(N)c2c(C)c1Cc1cccc(C#N)c1	-13.13
COc1ccc(CNCCCCCCNCCc2ccc(Cl)cc2)cc1OC	88.88
Fc1ccc(COc2ccc(Nc3ncnc4ccc(I)cc34)cc2Cl)cc1	-1.956
Cc1nc(N)nc(N)c1C#CC1CCCC1	11.69
NC1CCN(c2nc(NCCc3ccc(O)cc3)nc(NCc3ccccc3-c3ccccc3)n2)CC1	29.52
CC1CCCN1Cc1ccc(-c2ccc3c(=O)cc(CCc4cccc(F)c4F)n(CC(=O)N(C)Cc4ccc(-c5ccc(C(F)(F)F)cc5)cc4)c3n2)cc1 (centres unmarked)	30.5
Cc1ccc2c(=O)cc(CCc3cccc(F)c3F)n(CC(=O)N(Cc3ccc(-c4ccc(C(F)(F)F)cc4)cc3)C3CCN(C)CC3)c2n1	107

====

As shown below, each of these compounds has a reported % Inhibition value.
system: P. falciparum stage V gametocytes; design: BacTiter-Glo ATP luminescence viability of purified stage V gametocytes in 384-well plates, per cent inhibition versus DMSO; conditions: 48 h, 5 µM; inhibitor
The campaign covered roughly 13,000 compounds. About 3,200 (25%) showed an effect of 50% or more. Some of the results follow.
assay_metric: % Inhibition (%)

compound	data_value
COCCNCc1ccc(-c2ccc(CN(C(=O)Nc3ccccc3)C3CCN(Cc4ccccc4)CC3)cc2)cc1	51.26
Cc1cccc2c3c([nH]c12)C1(CCN(Cc2ccccc2)CC1)NC(C(=O)NCc1ccccc1)C3 (stereo not drawn)	-26.21
CC[C@H]1CN2CC[C@H]1C[C@H]2[C@H](O)c1cc(/C=C/c2ccccc2)nc2ccc(OC)cc12	62.86
O=C(NC1CCC1)C1CCN(C(c2ccc(Cl)cc2)c2ccc(Cl)cc2)CC1	57.43
CC[C@H]1CN2CC[C@H]1C[C@@H]2[C@@H](O)c1cc(Cl)nc2ccc(OC)cc12	-42.11
O=C(NCC1CC1)C1CCN(C(c2ccccc2)c2nc3ccccc3s2)CC1 (stereo not drawn)	-36.83
CCC(C)NCC(O)(c1ccc(Cl)cc1)c1ccc(Cl)cc1 (stereo not drawn)	68.55
C=C[C@H]1CN2CC[C@H]1C[C@H]2[C@H](O)c1cc(/C=C/c2ccc(F)cc2)nc2ccc(OC)cc12	-44.1
O=C(NC1CCCc2ccccc21)[C@@H]1CCCN1C(=O)c1ccc(O)c(-c2cccc([N+](=O)[O-])c2)c1 (stereo partly drawn)	18.58
CCCNC(=O)C1CCN(C(c2ccccc2)c2ccc(Cl)c(Cl)c2)CC1 (stereo not drawn)	-34.35
COc1ccc(CNCc2ccc(F)cc2)cc1-c1ccc(S(=O)(=O)NCCN2CCCC2)c(C)c1	105.7
Oc1ccccc1-c1nc2cccnc2n1CCc1cccc(C(F)(F)F)c1	14.7
COc1ccc(-c2ccc(CNCc3ccccc3)cc2)cc1S(=O)(=O)NCCN1CCCC1	103.5
O=S(=O)(NCCN1CCCC1)c1ccc(-c2ccc(CNCc3ccc(F)cc3)cc2)cc1F	42.7
CC[C@H]1CN2CC[C@H]1C[C@H]2[C@H](O)c1cc(/C=C/c2ccc(F)cc2)nc2ccc(OC)cc12	91.47
COCCNC(=O)C1CCN(C(c2ccc(Cl)cc2)c2ccc(Cl)cc2)CC1	-9.136
NC(=O)NC(=O)C=Cc1ccco1	-0.9845
Cn1ccnc1CNC(=O)c1ccc(-c2cccc(-c3nc4cc(F)ccc4[nH]3)c2)cc1	-5.334
Cc1ccc(CCC(C)NCC(O)c2cccc(C(F)(F)F)c2)cc1 (stereo not drawn)	13.09
CC1(C)CC(=O)c2c(O)cc(OCc3ccncc3)cc2O1	-21.15
CCN(CC)c1ccc2nc(N)nc(N)c2c1Cl	-7.537
COc1ccc(CNC2CCN(C)CC2)cc1-c1ccc(S(=O)(=O)NC2CCC2)cc1	84.43
CCC(C)NCCC(c1ccccc1)c1ccccc1O (stereo not drawn)	32.82
COc1ccc(CN2CCCC(N3CC4(OC3=O)c3ccccc3-c3ccccc34)C2)c(O)c1 (stereo not drawn)	22.8
COC(=O)c1cccc(CNCc2ccc(-c3ccc(-c4nc5cccc(C)c5[nH]4)cc3)cc2)c1.O=C(O)C(F)(F)F	77.27
FC(F)(F)c1ccc2[nH]c(-c3ccc(-c4cccc(CNCCc5ccncc5)c4)s3)nc2c1.O=C(O)C(F)(F)F	-1.104
O=C(NCCc1cccc(Cl)c1Cl)c1ccc(N2CCN(c3ccncc3)CC2)nc1	10.14
Cc1nc2ccc3ccc(CNc4ccc(C(=O)N[C@@H](CCC(=O)O)C(=O)O)c(F)c4)cc3c2c(=O)[nH]1	-4.938
COc1ccc(CNCc2ccccc2)cc1-c1ccc(S(=O)(=O)NCCN2CCCC2)c(C)c1	107.1
COc1ccc(CNCc2ccccc2)cc1-c1ccc(S(=O)(=O)NCCN2CCCC2)c(F)c1	101.3
[O-][s+]1c(Cl)c(-c2ccc(Cl)cc2)c2ccc(Cl)cc21 (stereo not drawn)	120.8
CCC(C)NCc1c(O)ccc2c(CNC(C)CC)c(O)ccc12 (stereo not drawn)	-26.38
O=C(NCC1CC1)C1CCN(C(c2ccccc2)c2cc(F)cc(F)c2)CC1 (stereo not drawn)	62.39

====

test system: P. falciparum stage V gametocytes; design: BacTiter-Glo ATP luminescence viability of purified stage V gametocytes in 384-well plates, per cent inhibition versus DMSO; conditions: 48 h, 5 µM; inhibitor
The whole screen tested about 13,000 compounds, of which about 3,200 (25%) showed an effect of 50% or more. The list shows a part of the results.
assay_metric: % Inhibition (%)

compound	assay_metric	data_value
Cc1nc(C)n(CC(=O)Nc2cccc(-c3cccc(-c4nc5ccc(C(F)(F)F)cc5[nH]4)c3)c2)n1 [TCMDC-137134]	% Inhibition	-7.323
COc1cc(Cc2cnc(N)nc2N)cc(OCCCCc2nn[nH]n2)c1OC [TCMDC-138032]	% Inhibition	13.98
Cc1cc(NC(=O)c2ccco2)ccc1OC1CCN(Cc2ccccc2)CC1 [TCMDC-133965]	% Inhibition	12.37
CN(C)c1ccc(-c2nnc(Sc3ccc(C#N)c([N+](=O)[O-])c3)n2Cc2ccco2)cc1 [TCMDC-135611]	% Inhibition	2.069
CN(CCc1ccccc1)c1ncc(-c2ccccc2CNCc2ccccc2O)cn1 [TCMDC-132575]	% Inhibition	53.28
CC(C)(C)OC(=O)NCc1ccc(Nc2nnc(-c3cccc(C(=O)NCCC(c4ccccc4)c4ccccc4)c3)o2)cc1 [TCMDC-134989]	% Inhibition	99.36
CC(=O)Nc1cccc(-c2cnc(N)c3cc(-c4ccc5c(c4)OCO5)ccc23)c1 [TCMDC-134504]	% Inhibition	30.5
CCCN(CC1CC1)c1ncc(-c2ccccc2CNCc2ccccc2O)cn1 [TCMDC-132574]	% Inhibition	-10.65
COc1cccc(CCNCCCCCCNCCc2ccc(Cl)cc2)c1 [TCMDC-131284]	% Inhibition	113.2
COc1ccc2ncc(F)c(CCN3CC[C@@H](CNCc4ccc5c(c4C)OCCO5)C3)c2n1 [TCMDC-136057]	% Inhibition	40.7
COc1cc(OC)cc(-c2nn(-c3ccc([N+](=O)[O-])cc3C#N)c(=S)n2Cc2ccco2)c1 [TCMDC-134715]	% Inhibition	75.07
N#Cc1cc([N+](=O)[O-])ccc1-n1nc(-c2cccc(Cl)c2)n(Cc2ccco2)c1=S [TCMDC-134717]	% Inhibition	102.9
COc1ccc(C2SCC(=O)N2CCc2ccc(OC)c(OC)c2)cc1 (stereo not shown) [TCMDC-125738]	% Inhibition	0.3725
O=[N+]([O-])c1ccc(-n2nc(-c3cccnc3)n(Cc3ccco3)c2=S)c(Cl)c1 [TCMDC-135132]	% Inhibition	83.46
CC(C)(C)OC(=O)NCc1ccc(Nc2nnc(-c3cccc(OCC(=O)NCc4cc(C(F)(F)F)cc(C(F)(F)F)c4)c3)o2)cc1 [TCMDC-134993]	% Inhibition	101.9
CCn1c2ccccc2c2cc(Cc3cnc(N)nc3N)ccc21 [TCMDC-131929]	% Inhibition	0.5194
